Test system: newborn Swiss mice
Assay: Experiment II: carcinogenicity in newborn mice, chrysene, 7-methylbenz(a)anthracene and K region epoxides (s.c. injection, tumour incidence to 70-75 weeks)
Details: males; 100 µg per treatment, 3 treatments (Days 0, 1 and 2) s.c. in PEG 400
measuredAttribute: No. of survivors at 50 weeks

{"columns": ["molecule", "reportedResult"],
 "data": [
  ["c1ccc2c(c1)-c1ccccc1C1OC21 (centres unmarked) [phenanthrene 9,10-oxide]", 19],
  ["c1ccc2c(c1)ccc1c3ccccc3ccc21 [Chrysene, reference compound]", 28],
  ["Cc1c2c(cc3ccccc13)-c1ccccc1C1OC21 (centres unmarked) [7-Methylbenz(a)anthracene 5,6-oxide]", 20],
  ["Cc1c2ccccc2cc2c1ccc1ccccc12 [7-Methylbenz(a)anthracene, reference compound]", 23],
  ["c1ccc2c(c1)-c1ccc3ccccc3c1C1OC21 (centres unmarked) [Chrysene 5,6-oxide]", 23]
]}

* * *

Tested on: newborn Swiss mice
Assay: Experiment II: carcinogenicity in newborn mice, chrysene, 7-methylbenz(a)anthracene and K region epoxides (s.c. injection, tumour incidence to 70-75 weeks)
Settings: males; 100 µg per treatment, 3 treatments (Days 0, 1 and 2) s.c. in PEG 400

{"columns": ["compound", "No. of survivors at 70 weeks"],
 "data": [
  ["c1ccc2c(c1)-c1ccc3ccccc3c1C1OC21 (centres unmarked) [Chrysene 5,6-oxide]", 21],
  ["c1ccc2c(c1)ccc1c3ccccc3ccc21 [Chrysene, reference compound]", 27],
  ["Cc1c2ccccc2cc2c1ccc1ccccc12 [7-Methylbenz(a)anthracene, reference compound]", 4],
  ["Cc1c2c(cc3ccccc13)-c1ccccc1C1OC21 (centres unmarked) [7-Methylbenz(a)anthracene 5,6-oxide]", 20],
  ["c1ccc2c(c1)-c1ccccc1C1OC21 (centres unmarked) [phenanthrene 9,10-oxide]", 17]
]}

* * *

Test system: newborn Swiss mice
Experiment: Experiment II: carcinogenicity in newborn mice, chrysene, 7-methylbenz(a)anthracene and K region epoxides (s.c. injection, tumour incidence to 70-75 weeks)
Details: females; 100 µg per treatment, 3 treatments
measuredAttribute: No. of mice examined at p.m. at termination of experiment (70-75th week) with lung tumours

{"columns": ["compound", "reportedResult"],
 "data": [
  ["Cc1c2ccccc2cc2c1ccc1ccccc12 [7-Methylbenz(a)anthracene, reference compound]", 1],
  ["c1ccc2c(c1)-c1ccccc1C1OC21 (stereo not shown) [phenanthrene 9,10-oxide]", 0],
  ["Cc1c2c(cc3ccccc13)-c1ccccc1C1OC21 (stereo not shown) [7-Methylbenz(a)anthracene 5,6-oxide]", 6],
  ["c1ccc2c(c1)ccc1c3ccccc3ccc21 [Chrysene, reference compound]", 0]
]}

* * *

The molecules listed here are annotated with their No. of mice examined at p.m. from 50-70th week with lung tumours.
Tested on: newborn Swiss mice
Experiment: Experiment II: carcinogenicity in newborn mice, chrysene, 7-methylbenz(a)anthracene and K region epoxides (s.c. injection, tumour incidence to 70-75 weeks)
Details: males; 100 µg per treatment, 3 treatments
Description: Br. J. Cancer (1975) 31, 182 THE CARCINOGENICITY OF POLYCYCLIC HYDROCARBON EPOXIDES IN NEWBORN MICE P. L. GROVER, P. SIMS, B. C. V. MITCHLEY AND F. J. C. ROE From the Chester Beatty Research Institute, Institute of Cancer Research, Royal Cancer Hospital, Fulham Road, London, SW3 6JB Received 9 August 1974. […] The number of lesions thought to be neoplasms and the size of the largest such lesion in each organ affected were recorded. […]
measuredAttribute: No. of mice examined at p.m. from 50-70th week with lung tumours

{"columns": ["molecule", "reportedResult"],
 "data": [
  ["c1ccc2c(c1)ccc1c3ccccc3ccc21 [Chrysene, reference compound]", 0],
  ["Cc1c2ccccc2cc2c1ccc1ccccc12 [7-Methylbenz(a)anthracene, reference compound]", 10],
  ["Cc1c2c(cc3ccccc13)-c1ccccc1C1OC21 (centres unmarked) [7-Methylbenz(a)anthracene 5,6-oxide]", 0],
  ["c1ccc2c(c1)-c1ccc3ccccc3c1C1OC21 (centres unmarked) [Chrysene 5,6-oxide]", 0],
  ["c1ccc2c(c1)-c1ccccc1C1OC21 (centres unmarked) [phenanthrene 9,10-oxide]", 0]
]}
